Just for reference, patent US20240279278A1 is where these values come from.

- targetOfAssay: human NMUR2 receptor (Homo sapiens, UniProt Q9GZQ4)
- Sequence (Q9GZQ4 whole entry): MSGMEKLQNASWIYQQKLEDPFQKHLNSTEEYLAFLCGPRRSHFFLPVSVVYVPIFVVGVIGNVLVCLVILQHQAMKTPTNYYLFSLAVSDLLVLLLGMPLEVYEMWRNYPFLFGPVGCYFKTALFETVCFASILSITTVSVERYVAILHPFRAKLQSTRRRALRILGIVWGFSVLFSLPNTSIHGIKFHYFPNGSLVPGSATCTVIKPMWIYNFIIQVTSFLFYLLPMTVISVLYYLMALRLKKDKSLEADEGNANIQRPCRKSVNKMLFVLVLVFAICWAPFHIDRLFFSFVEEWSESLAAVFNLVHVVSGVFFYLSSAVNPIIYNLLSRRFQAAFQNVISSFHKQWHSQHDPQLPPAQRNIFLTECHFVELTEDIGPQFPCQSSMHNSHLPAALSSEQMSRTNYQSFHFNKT
- measurementNotes: IP1 Gq HTRF assay, activation of human NMUR2 in buffer
- Type: cell-based
- Parameters: expressed in transfected cells; host or cells: CHO-K1
- setupConditions: CHO-K1 cells expressing human NMUR2, stimulation buffer with 0.1% BSA; read-out: EC50 (hNMUR2) buffer
- Source text: Example 3: IP1 Gq HTRF Assay Activation of Human NMUR2 or Human NMUR1 in Buffer Application of the Homogenous Time Resolved Fluorescence (HTRF) technology optimized for Gq coupled receptors has been described in detail in the Cisbio IP-One Gq kit manual. In brief, a FRET signal (FRET: fluorescence resonance energy transfer) is generated between the donor label of an IP-One antibody (anti-IP1-Tb) and the acceptor label of a tagged IP-One (IP1-d2). […]

>  <compoundStructure>
CCCC[C@H](NC(=O)[C@H](CC(C)C)N(C)C(=O)[C@H](Cc1ccccc1)NC(=O)[C@H](Cc1ccc(O)cc1)NC(=O)CN1CCN(CCNC(=O)CN(C)C(=O)CN(C)C(=O)CN(C)C(=O)CN(C)C(=O)CN(C)C(=O)CN(C)C(=O)CN(C)C(=O)CN(C)C(=O)CN(C)C(=O)CN(C)C(=O)CN(C)C(=O)CN(C)C(=O)CC[C@H](NC(=O)CC[C@H](NC(=O)CC[C@H](NC(=O)CCCCCCCCCCCCCCCCC(=O)O)C(=O)O)C(=O)O)C(=O)O)CC1)C(=O)N[C@@H](CCN)C(=O)N(C)[C@@H](C)C(=O)N[C@@H](CCCNC(=N)N)C(=O)NCC(N)=O

>  <EC50>
1.9 nM

$$$$
>  <compoundStructure>
CCCC[C@H](NC(=O)[C@H](CC(C)C)N(C)C(=O)[C@H](Cc1ccccc1)NC(=O)[C@H](Cc1ccc(O)cc1)NC(=O)CN1CCN(CCNC(=O)CN(C)C(=O)CN(C)C(=O)CN(C)C(=O)CN(C)C(=O)CN(C)C(=O)CN(C)C(=O)CN(C)C(=O)CN(C)C(=O)CN(C)C(=O)CN(C)C(=O)CN(C)C(=O)CN(C)C(=O)CC[C@H](NC(=O)CC[C@H](NC(=O)CC[C@H](NC(=O)CCCCCCCCCCCCCCCCC(=O)O)C(=O)O)C(=O)O)C(=O)O)CC1)C(=O)N[C@@H](CCN)C(=O)N1CCC[C@H]1C(=O)N[C@@H](CCCNC(=N)N)C(=O)NCC(N)=O

>  <EC50>
1.2 nM

$$$$
>  <compoundStructure>
CCCC[C@H](NC(=O)[C@H](CC(C)C)N(C)C(=O)[C@H](Cc1ccccc1)NC(=O)[C@H](Cc1ccc(O)cc1)NC(=O)CN1CCN(CCNC(=O)CN(C)C(=O)CN(C)C(=O)CN(C)C(=O)CN(C)C(=O)CN(C)C(=O)CN(C)C(=O)CN(C)C(=O)CN(C)C(=O)CN(C)C(=O)CN(C)C(=O)CN(C)C(=O)CN(C)C(=O)CC[C@H](NC(=O)CC[C@H](NC(=O)CC[C@H](NC(=O)CCCCCCCCCCCCCCCCCCC(=O)O)C(=O)O)C(=O)O)C(=O)O)CC1)C(=O)N[C@@H](CCN)C(=O)N1CCC[C@H]1C(=O)N[C@@H](CCCNC(=N)N)C(=O)NCC(N)=O

>  <EC50>
3.1 nM

$$$$
